# target_or_system: guanylyl cyclase (basal) (Bos taurus, UniProt P16068+P19687)
# Construct: bovine lung; from tissue; host or cells: bovine lung
# Sequence (P19687 whole entry): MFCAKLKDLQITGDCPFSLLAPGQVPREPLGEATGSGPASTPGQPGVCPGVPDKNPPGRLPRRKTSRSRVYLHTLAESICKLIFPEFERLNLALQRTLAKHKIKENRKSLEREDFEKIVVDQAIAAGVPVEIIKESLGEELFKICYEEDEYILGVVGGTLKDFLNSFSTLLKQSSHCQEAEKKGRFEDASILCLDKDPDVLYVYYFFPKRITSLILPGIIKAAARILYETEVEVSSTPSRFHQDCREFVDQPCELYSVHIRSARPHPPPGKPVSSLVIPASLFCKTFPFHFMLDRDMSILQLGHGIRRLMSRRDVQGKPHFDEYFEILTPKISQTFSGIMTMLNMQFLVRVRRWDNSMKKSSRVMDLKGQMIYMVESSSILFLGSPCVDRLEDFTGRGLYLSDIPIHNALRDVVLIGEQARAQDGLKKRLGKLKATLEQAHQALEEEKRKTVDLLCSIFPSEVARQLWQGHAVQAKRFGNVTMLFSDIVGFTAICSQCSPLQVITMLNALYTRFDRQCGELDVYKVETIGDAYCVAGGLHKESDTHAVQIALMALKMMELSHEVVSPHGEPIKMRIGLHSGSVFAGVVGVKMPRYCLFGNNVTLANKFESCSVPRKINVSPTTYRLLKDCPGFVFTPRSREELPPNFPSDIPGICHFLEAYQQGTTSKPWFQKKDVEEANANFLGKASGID
# Sequence (P16068 whole entry): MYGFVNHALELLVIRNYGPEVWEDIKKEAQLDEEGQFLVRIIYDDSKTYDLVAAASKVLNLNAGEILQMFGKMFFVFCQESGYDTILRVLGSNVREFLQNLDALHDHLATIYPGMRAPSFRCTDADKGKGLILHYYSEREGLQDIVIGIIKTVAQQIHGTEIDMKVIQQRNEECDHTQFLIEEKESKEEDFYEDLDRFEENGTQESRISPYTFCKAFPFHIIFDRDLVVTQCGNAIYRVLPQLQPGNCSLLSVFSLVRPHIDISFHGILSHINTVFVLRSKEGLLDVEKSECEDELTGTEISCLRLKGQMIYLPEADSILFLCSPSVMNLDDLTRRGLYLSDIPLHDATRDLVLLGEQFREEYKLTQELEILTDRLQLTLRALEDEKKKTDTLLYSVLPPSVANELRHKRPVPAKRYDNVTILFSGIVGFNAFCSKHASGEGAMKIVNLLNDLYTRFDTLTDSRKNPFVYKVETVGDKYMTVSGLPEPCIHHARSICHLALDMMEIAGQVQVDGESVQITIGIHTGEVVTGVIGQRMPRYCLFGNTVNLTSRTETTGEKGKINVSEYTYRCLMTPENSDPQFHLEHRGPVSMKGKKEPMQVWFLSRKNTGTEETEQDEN
# assay_details: Enzyme assay guanylyl cyclase (basal)
# Assay type: biochemical, bovine
# From the text: The enzyme assays provided below will be familiar to those skilled in the art. Analysis and Expression of Results: The results are expressed as a percent of control specific activity ((measured specific activity/control specific activity)×100) obtained in the presence of the test compounds.
property: % Stimulation Relative to Control @ 10 μM (%)
Write the value in % as a bare number.

Field: example entries. Status: answers known.
1. CC1(C)C(=O)N(c2ccc(C#N)c(C(F)(F)F)c2)C(=S)N1c1ccc(C(=O)O)c(F)c1 [(MI)]; 0
2. CC1(C)C(=O)N(c2ccc(C#N)c(C(F)(F)F)c2)C(=O)N1c1ccc(C(N)=O)c(F)c1 [(MIII)]; −1
3. CNC(=O)c1ccc(N2C(=O)N(c3ccc(C#N)c(C(F)(F)F)c3)C(=O)C2(C)C)cc1F [(MIV)]; 2

Please look at the following molecule next.
Determine from records and report % Stimulation Relative to Control @ 10 μM for CC1(C)C(=O)N(c2ccc(C#N)c(C(F)(F)F)c2)C(=S)N1c1ccc(C(N)=O)c(F)c1 [(MII)]
0
